# System: ketose 3-epimerase
# Format: biochemical, Rhizobium leguminosarum ATCC14480
# Condition Notes: 1 mM, in comparison with the case without metal ions
Measure: Effect on the ketose 3-epimerase activity (in words)

// known answers, use as guide
Molecule | Endpoint Value
[Cl][Cu][Cl] | slightly inhibited
[Cl-].[Cl-].[Zn+2] | remarkable inhibited
[Cl][Hg][Cl] [HgCl2, mercury chloride] | remarkable inhibited
[Cl][Mn][Cl] | Activated
[Cl][Pb][Cl] | slightly inhibited
[Cl-].[Cl-].[Mg+2] | Activated

Entry `[Cl][Ni][Cl]` has what Effect on the ketose 3-epimerase activity (in words)?
slightly inhibited

====

# Tested on: ketose 3-epimerase
# Assay Info: Substrate specificity of ketose 3-epimerase (epimer content by HPLC)
# Type: biochemical, Rhizobium leguminosarum ATCC14480
# Condition Notes: enzyme 2 units/g-substrate; 1% (w/v) substrate, pH 8.0, 1 mM MnCl2, 45° C., 17 hours
# Description: By using the purified preparation of the ketose 3-epimerase, obtained by the method in Experiment 2, the substrate specificity of the enzyme was investigated using various D- or L-ketohexoses and D- or L-ketopentoses as substrates. […] After stopping the reaction by keeping the reaction mixture at 100° C. for 10 min, the content of epimer formed from each substrate was measured using high performance liquid chromatography (hereinafter, abbreviated as “HPLC”). […]
Measure: Epimer content in the reaction products
# include the unit after the value

Smiles Data | Measure | Endpoint Value
O=C(CO)[C@H](O)[C@@H](O)[C@H](O)CO | Epimer content in the reaction products | 0%

Entry `O=C(CO)[C@@H](O)[C@@H](O)CO` has what Epimer content in the reaction products?
19.2%

Entry `O=C(CO)[C@@H](O)[C@@H](O)[C@@H](O)CO` has what Epimer content in the reaction products?
1.6%

Entry `O=C(CO)[C@@H](O)[C@@H](O)[C@H](O)CO` has what Epimer content in the reaction products?
0.6%

Entry `O=C(CO)[C@H](O)[C@H](O)CO` has what Epimer content in the reaction products?
17.1%

Entry `O=C(CO)[C@H](O)[C@H](O)[C@H](O)CO` has what Epimer content in the reaction products?
39.4%

Entry `O=C(CO)[C@H](O)[C@@H](O)[C@@H](O)CO` has what Epimer content in the reaction products?
0%

Entry `O=C(CO)[C@H](O)[C@@H](O)CO` has what Epimer content in the reaction products?
1.6%

Entry `O=C(CO)[C@H](O)[C@H](O)[C@@H](O)CO` has what Epimer content in the reaction products?
3.2%

====

Reported Relative activity by item:
# Tested on: ketose 3-epimerase
# Assay type: biochemical, Rhizobium leguminosarum ATCC14480
# Condition Notes: 1 mM metal salt, substrate solution without 1 mM MnCl2; None = 100
Supply the numeric figure in %, leaving out any unit text.

Smiles Data | Measure | Endpoint Value
[Cl-].[Cl-].[Mg+2] | Relative activity | 141
[Ba+2].[Cl-].[Cl-] | Relative activity | 96

Then there is this compound:
Entry `[Cl][Pb][Cl]` has what Relative activity?
69
